The measured values listed here are drawn from the supplement of paper PMC6555819.

tested on: THRa:RXRa (NR concentration 90 nM, RXRa partner concentration 90 nM); assay: PBM binding z-score (relative to random genomic background probes); higher = stronger binding; sequences stand for … in GC…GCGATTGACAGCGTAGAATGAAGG
Is PBM binding z-score at least 3? Then class 1. If not, class 0.

Use the examples below as a reference point.
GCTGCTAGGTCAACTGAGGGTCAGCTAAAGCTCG = class 1
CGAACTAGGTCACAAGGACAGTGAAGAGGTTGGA = class 1
CCTAGCAGACCAATCTGGGTCACTCAAGGCTTGA = class 0

Given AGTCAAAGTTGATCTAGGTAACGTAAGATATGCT , state whether its PBM binding z-score is at least 3. class 0

Quick one: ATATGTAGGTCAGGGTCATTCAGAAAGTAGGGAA class 1

---

system: RXRa DBDmut IVT, anti-RXR (DBD mutation: RXRa K156A/R161A, NR concentration 90 nM); experiment: PBM binding z-score (relative to random genomic background probes); higher = stronger binding; sequences stand for … in GC…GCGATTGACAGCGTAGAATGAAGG
Measured PBM binding z-score determines class: low class: < 0.8; middle class: ≥ 0.8 and < 2; high class: ≥ 2

Class (by measured PBM binding z-score) for TCATATAGGTAATAAAGGTGAAAGTCGGCATCTA middle class

// same read-out, input: AGTAGCAGGCCAAGGGTCACTCAAGATTAGTCCG low class

Try this sequence too: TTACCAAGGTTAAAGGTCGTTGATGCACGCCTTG middle class

---

// reported PBM binding z-score for each item listed
tested on: VDR:RXRa (NR concentration 270 nM, RXRa partner concentration 90 nM); experiment: PBM binding z-score (relative to random genomic background probes); higher = stronger binding; sequences stand for … in GC…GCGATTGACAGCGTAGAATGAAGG
API note: the answer field is a bare number with no unit suffix.

Here is how some sequences turned out for PBM binding z-score.
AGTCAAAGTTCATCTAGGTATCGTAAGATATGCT = 5.01
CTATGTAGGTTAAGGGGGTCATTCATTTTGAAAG = 7.08
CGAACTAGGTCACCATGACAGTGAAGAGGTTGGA = 1.78
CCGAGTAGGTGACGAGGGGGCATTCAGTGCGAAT = 4.37
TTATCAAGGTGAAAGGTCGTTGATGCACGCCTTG = 3.29

For the sequence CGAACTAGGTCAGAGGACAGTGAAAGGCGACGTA , what PBM binding z-score is on record? 0.161

Request: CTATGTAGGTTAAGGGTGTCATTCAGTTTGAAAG 3.24

Please do the same for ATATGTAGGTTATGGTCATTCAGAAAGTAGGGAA as well. 0.871

How about this sequence: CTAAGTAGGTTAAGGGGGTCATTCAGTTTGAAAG 7.19

---

Listing of entries alongside the reported PBM binding z-score.
test system: PPARg:RXRa DBDmut IVT, anti-RXR (DBD mutation: RXRa K156A/R161A, NR concentration 270 nM, RXRa partner concentration 90 nM); test: PBM binding z-score (relative to random genomic background probes); higher = stronger binding; sequences stand for … in GC…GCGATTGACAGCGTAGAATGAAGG
Keep it simple and answer with nothing but the number.

In the examples that follow, each entry is paired with its recorded PBM binding z-score.
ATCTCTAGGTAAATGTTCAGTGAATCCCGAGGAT = 2.02
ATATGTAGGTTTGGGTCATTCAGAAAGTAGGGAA = 2.79
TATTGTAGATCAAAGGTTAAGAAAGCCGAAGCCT = 1.27
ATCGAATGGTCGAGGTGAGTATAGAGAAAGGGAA = -0.483

// PBM binding z-score lookup, key: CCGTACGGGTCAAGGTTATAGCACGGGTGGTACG 0.0598

Same question for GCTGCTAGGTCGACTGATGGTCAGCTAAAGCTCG please. 1.27

Another sequence to look at: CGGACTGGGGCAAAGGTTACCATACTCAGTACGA 6.11

Request: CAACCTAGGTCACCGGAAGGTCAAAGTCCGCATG 4.96

Next record, please: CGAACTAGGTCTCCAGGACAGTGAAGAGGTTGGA 4.77

// same read-out, input: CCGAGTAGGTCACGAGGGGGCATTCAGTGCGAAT 6.96

Entry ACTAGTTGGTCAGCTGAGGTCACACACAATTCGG please 1.96

Next record, please: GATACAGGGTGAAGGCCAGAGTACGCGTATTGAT 0.737

// query: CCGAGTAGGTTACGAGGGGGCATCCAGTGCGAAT 4.1

And for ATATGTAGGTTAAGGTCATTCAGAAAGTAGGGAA ? 7.09

---

tested on: PPARg DBDmut:RXRa IVT, anti-PPARg (DBD mutation: PPARg1 K132A/R137A, NR concentration 270 nM, RXRa partner concentration 90 nM); assay: PBM binding z-score (relative to random genomic background probes); higher = stronger binding; sequences stand for … in GC…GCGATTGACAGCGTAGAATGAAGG
PBM binding z-score vs 0.6: at or above is yes (1), below is no (0).

Worked set:
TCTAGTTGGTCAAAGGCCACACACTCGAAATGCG = no (0)
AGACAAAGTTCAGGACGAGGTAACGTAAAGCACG = no (0)
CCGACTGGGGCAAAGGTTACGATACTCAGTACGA = yes (1)
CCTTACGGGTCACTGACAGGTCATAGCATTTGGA = no (0)
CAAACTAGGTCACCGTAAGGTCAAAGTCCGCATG = yes (1)

Decide: PBM binding z-score of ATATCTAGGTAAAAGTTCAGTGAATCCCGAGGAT >= 0.6? yes (1)

Field entry: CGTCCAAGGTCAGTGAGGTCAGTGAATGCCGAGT no (0)

Query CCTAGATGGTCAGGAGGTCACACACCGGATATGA next no (0)

---

test system: RARg homodimer (NR concentration 270 nM); test: PBM binding z-score (relative to random genomic background probes); higher = stronger binding; sequences stand for … in GC…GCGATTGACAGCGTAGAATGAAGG
Range-based classes on measured PBM binding z-score: bottom end: < 2; midrange: ≥ 2 and < 5; top end: ≥ 5

// known answers, use as guide
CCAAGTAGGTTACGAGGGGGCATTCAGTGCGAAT = midrange
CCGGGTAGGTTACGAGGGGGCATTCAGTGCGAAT = midrange

Exam item: assign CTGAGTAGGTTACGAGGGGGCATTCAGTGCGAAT to the correct category. midrange

Next: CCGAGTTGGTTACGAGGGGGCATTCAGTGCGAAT bottom end

// query: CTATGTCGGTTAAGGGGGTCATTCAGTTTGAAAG midrange

Next sequence: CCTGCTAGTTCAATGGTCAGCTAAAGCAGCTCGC bottom end

Follow-up entry: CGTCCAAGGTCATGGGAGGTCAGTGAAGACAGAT top end

Ok, now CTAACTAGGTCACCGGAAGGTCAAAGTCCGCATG top end

Please give the result for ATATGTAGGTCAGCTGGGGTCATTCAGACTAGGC too. top end

---

system: VDR:RXRa (NR concentration 270 nM, RXRa partner concentration 90 nM); experiment: PBM binding z-score (relative to random genomic background probes); higher = stronger binding; sequences stand for … in GC…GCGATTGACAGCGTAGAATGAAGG
REPORTED ENDPOINT: PBM binding z-score
Enter the number alone.

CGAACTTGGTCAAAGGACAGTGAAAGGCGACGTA = -0.101

Form field: reported PBM binding z-score of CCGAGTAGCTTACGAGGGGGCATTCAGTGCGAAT 3.41

Now the sequence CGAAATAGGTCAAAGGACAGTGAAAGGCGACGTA 2.5

Try this sequence too: AGAATGGGGTTATTAAGATCAGGGAATTGCGGTC 4.05

---

system: LXRa:RXRa (NR concentration 270 nM, RXRa partner concentration 90 nM); test: PBM binding z-score (relative to random genomic background probes); higher = stronger binding; sequences stand for … in GC…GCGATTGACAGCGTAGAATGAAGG
The entries below come with measured PBM binding z-score values attached.
Reply: number alone, nothing else.

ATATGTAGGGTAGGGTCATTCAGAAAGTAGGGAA = 4.09

For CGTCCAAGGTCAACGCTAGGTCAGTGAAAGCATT , what is its reported PBM binding z-score? 5.95

Same thing, different sequence: ATATGTAGGTGAAGGGTCATTCAGGTTGGTTCGC 4.29

---

system: RARg:RXRa (NR concentration 270 nM, RXRa partner concentration 90 nM); assay: PBM binding z-score (relative to random genomic background probes); higher = stronger binding; sequences stand for … in GC…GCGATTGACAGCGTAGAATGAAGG
PBM binding z-score below 3 gives class 0; PBM binding z-score at or above it gives class 1.

Worked cases, answers included:
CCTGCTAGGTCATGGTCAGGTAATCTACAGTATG = class 1
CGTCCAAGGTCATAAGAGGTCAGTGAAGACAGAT = class 1
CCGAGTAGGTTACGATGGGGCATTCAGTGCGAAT = class 0
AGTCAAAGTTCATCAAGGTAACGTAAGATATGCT = class 1
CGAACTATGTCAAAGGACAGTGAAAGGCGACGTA = class 0
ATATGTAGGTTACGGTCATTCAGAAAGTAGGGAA = class 0
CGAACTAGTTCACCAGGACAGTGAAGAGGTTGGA = class 0
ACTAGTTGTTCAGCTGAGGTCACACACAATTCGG = class 1
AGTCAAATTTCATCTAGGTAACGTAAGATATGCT = class 0
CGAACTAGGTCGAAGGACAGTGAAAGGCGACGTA = class 0

Reported PBM binding z-score at or above 3? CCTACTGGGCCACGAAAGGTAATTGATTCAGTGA class 0

Same lookup for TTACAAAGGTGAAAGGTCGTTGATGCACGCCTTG , please. class 1

Would you mind doing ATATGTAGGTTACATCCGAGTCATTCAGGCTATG as well? class 0

Now consider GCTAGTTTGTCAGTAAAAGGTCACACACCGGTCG and answer again. class 1

Quick one: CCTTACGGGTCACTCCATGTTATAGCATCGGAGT class 1
